Catalogue of compounds with associated T/C
test system: P388; test: In vivo antineoplastic activity was determined in BDF1 mice implanted with P388 leukemia and activity is expressed as T/C at 200 mg/kg ip dose (Q4dx2 treatment); type: functional, Mus musculus; conditions: route intraperitoneal
In your answer, state the number alone without any accompanying words.

In the examples that follow, each entry is paired with its recorded T/C.
O=C1c2c(O)ccc(Cl)c2C(=O)c2c(NCCNCCO)ccc(Cl)c21 ... 96
CN(C)CCNc1ccc(Cl)c2c1C(=O)c1c(O)ccc(Cl)c1C2=O ... 113
O=C1c2cccc(NCCNCCO)c2C(=O)c2cccc(Cl)c21 ... 105
CN(C)CCNc1ccc(Cl)c2c1C(=O)c1c(Cl)ccc(NCCN(C)C)c1C2=O ... 128

The record that follows has no T/C shown yet.
Exercise: State its T/C: CN(C)CCNc1ccc(NCCN(C)C)c2c1C(=O)c1c(Cl)ccc(Cl)c1C2=O
Key: 117
